Data origin, for the record: the supplement of paper PMC10567573

# protein stability index annotations
# ASSAY TEXT: protein stability index of a GFP-peptide fusion (GPS, HEK-293T) (PSI 1-6); higher = more stable;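 also: 24-mer peptide tiles fused after GFP, lentivirally expressed, FACS-sorted into six equal bins by GFP/DsRed ratio, decoded by Illumina sequencing, PSI is the read-weighted mean bin number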
# EXPERIMENTAL SETUP: treatment: MLN4924 1 uM, 8 h; c terminus: a fixed tail appended
MEASURE NAME: protein stability index

ENTRY SEQUENCE: LESRQRSLEQANRSLQLRIQELEL [TFE3]
ENDPOINT RESULT: 3.98
--
ENTRY SEQUENCE: ECGKAFSRSSILVQHQRVHTGEKP [ZNF24]
ENDPOINT RESULT: 3.96
--
ENTRY SEQUENCE: SRNEFDRTIAETEAAYLKILESSQ [SSNA1]
ENDPOINT RESULT: 4.04
--
ENTRY SEQUENCE: ESLPHRLSCLGQQQQEPPLAMGTV [PLAGL1]
ENDPOINT RESULT: 4.04
--
ENTRY SEQUENCE: PLDSKENLENPMRRIHSLPQKLLG [CDC25A]
ENDPOINT RESULT: 3.79
--
ENTRY SEQUENCE: KSSGRFLWIKFFAAGELESMGFSA [NETO1]
ENDPOINT RESULT: 2.64
--
ENTRY SEQUENCE: VERAAAAAAAAAGGDAGHAPFPPP [C6orf223]
ENDPOINT RESULT: 5.22
--
ENTRY SEQUENCE: KLQVSQQEDITKSLLVTELGSSRT [IMPA1]
ENDPOINT RESULT: 4.28
--
ENTRY SEQUENCE: IGLRQHHCRKCGKAVCGKCSSKRS [WDFY2]
ENDPOINT RESULT: 4.15
--
ENTRY SEQUENCE: LLEDARRKGMPFAQWDGPTVVSWL [PPFIA4]
ENDPOINT RESULT: 2.01
--
ENTRY SEQUENCE: LKVKCLNNLAASQLKLDHYRAALR [FKBP8]
ENDPOINT RESULT: 2.19
--
ENTRY SEQUENCE: NKTQQVIHIIDFGLAKEYIDPETK [CSNK1G3]
ENDPOINT RESULT: 2.47
--
ENTRY SEQUENCE: RGRAVLREAGFHQYEVSNFARNGA [RSAD1]
ENDPOINT RESULT: 3.37
--
ENTRY SEQUENCE: AWIWHDCHRHYHSMEVFTHYDLLN [LOXL2]
ENDPOINT RESULT: 3
--
ENTRY SEQUENCE: AHAGAVHNGKIYISGGVHNGEYVP [KLHL14]
ENDPOINT RESULT: 2.82
--
ENTRY SEQUENCE: LYIQSHYQLELQCCIDWTHVTDPL [SMG5]
ENDPOINT RESULT: 3.06
--
ENTRY SEQUENCE: WPLRGKREAMLEMLLQHQICKEVQ [SPAG8]
ENDPOINT RESULT: 2.11
--
ENTRY SEQUENCE: EFEEATGEAGWGAGEGRLGHKRKQ [FOXJ1]
ENDPOINT RESULT: 5.19
--
ENTRY SEQUENCE: DNIVNCNEFLCTLQKKLDNLQCLY [ZNF277]
ENDPOINT RESULT: 2.07
--
ENTRY SEQUENCE: TNVVTGHRQSFGTNSDVLAQQFAL [DCAF4]
ENDPOINT RESULT: 3.43
--
ENTRY SEQUENCE: RSNVDFLETPELTSTMLVPASWWI [NECAB1]
ENDPOINT RESULT: 2.23
--
ENTRY SEQUENCE: FTGNFFYNYMMGIEFNPRIGKWFD [DHCR7]
ENDPOINT RESULT: 2.21
--
ENTRY SEQUENCE: SRRSMAHILKARKVLTEPEVRYYL [PLK2]
ENDPOINT RESULT: 2.43
--
ENTRY SEQUENCE: EDAVASADFSSMLSEEEKEELKAE [TPD52L1]
ENDPOINT RESULT: 5.54
--
ENTRY SEQUENCE: SAARVVLTSLLACLPAGPRVYFLK [DUSP5]
ENDPOINT RESULT: 2.41
--
ENTRY SEQUENCE: KIQLSDSEAKSHSSADDASAWSNI [FAN1]
ENDPOINT RESULT: 4.74
--
ENTRY SEQUENCE: NFFNQVLMLGKTSISDLSEHVFDL [PDS5B]
ENDPOINT RESULT: 2.63
--
ENTRY SEQUENCE: IHLSAPCIYSEVMEALDLQPGLSF [PCMTD2]
ENDPOINT RESULT: 1.96
--
ENTRY SEQUENCE: YLDKAPPPGLPAETIKDLMRQFLR [CDK4]
ENDPOINT RESULT: 4.23
--
ENTRY SEQUENCE: RVRVELQEQNGRLQAELAAQEALR [LRRC45]
ENDPOINT RESULT: 3.98
--
ENTRY SEQUENCE: SEEIRFYQLGEEAMEKFREDEGFL [KCNA3]
ENDPOINT RESULT: 4.44

---

# ASSAY TEXT: protein stability index of a GFP-peptide fusion (GPS, HEK-293T) (PSI 1-6); higher = more stable
# EXPERIMENTAL SETUP: treatment: DMSO; c terminus: a fixed tail appended
Consider the reported protein stability index of an entry and match it to a band in small value = under 3, mid value = from 3 up to 4, large value = 4 and over

ENTRY SEQUENCE: VAEQVGIDKGDIPDLTQAPSSLME [SNAP91]
CATEGORY: large value

ENTRY SEQUENCE: SGRTQAQTRRASALIDRPAPYFER [EPB41L3]
CATEGORY: mid value

ENTRY SEQUENCE: MECQPESSISHRFHKDCASRVNNA [EHMT1]
CATEGORY: large value

ENTRY SEQUENCE: NAAYFVGKWMKKFPESETKECPFR [SERPINB5]
CATEGORY: small value

ENTRY SEQUENCE: PELRQLVLSLLSLEPAQRPPLSHI [NEK8]
CATEGORY: small value

ENTRY SEQUENCE: LEISGIIMSRVNAYQQGVGYQMLG [PHTF1]
CATEGORY: small value

ENTRY SEQUENCE: GDIQELYDTTLALGHAAAFSDDCD [GLT8D2]
CATEGORY: large value

ENTRY SEQUENCE: CKLTCQAQALGYYYVLEPRVVDGT [ADAMTS4]
CATEGORY: small value

ENTRY SEQUENCE: EGPALVEIDRSVENTLLNSQMVST [MIA2]
CATEGORY: large value

ENTRY SEQUENCE: SGVCLFAVFIALLPILGHRDYKIQ [PTGFR]
CATEGORY: mid value

ENTRY SEQUENCE: DRAPAEQVPRSPVIKISYSTPQGK [PWWP2B]
CATEGORY: large value

ENTRY SEQUENCE: AKKKRLTKADIGTPSNFQHIGHVG [WASL]
CATEGORY: mid value

---

# ASSAY TEXT: protein stability index of a GFP-peptide fusion (GPS, HEK-293T) (PSI 1-6); higher = more stable
# EXPERIMENTAL SETUP: treatment: MLN4924 1 uM, 8 h; c terminus: a fixed tail appended

ENTRY SEQUENCE: LKPFFMKEVGSHFDDFVTNLIEKS [SOAT1]
protein stability index: 2.88
//
ENTRY SEQUENCE: SGLDSPSHAAPGPSPDSWVPRPGT [FCHO1]
protein stability index: 4.25
//
ENTRY SEQUENCE: RDQQVEAAQRALVEVLGPYEPLLS [RETREG3]
protein stability index: 4.14
//
ENTRY SEQUENCE: EKKRKEEEERRRREEEERERLQKE [ACBD3]
protein stability index: 5.49
//
ENTRY SEQUENCE: KRYAGREEHWVGLKKEPGHPWKWS [CD69]
protein stability index: 2.83
//
ENTRY SEQUENCE: VAAGVLCELAQDKEAAEAIEAEGA [CTNNB1]
protein stability index: 5.44
//
ENTRY SEQUENCE: FELQRLEFDLSPLNLDIGQVYKET [AASDHPPT]
protein stability index: 2.29
//
ENTRY SEQUENCE: VSPGVLVLLAVLPVLLLQITVGLV [MOG]
protein stability index: 2.96
//
ENTRY SEQUENCE: SEEELAAATTSKEQEPIGTDLDAV [MYBL2]
protein stability index: 5.58
//
ENTRY SEQUENCE: SPLQTIGEEQTQNPYTELLVLKAH [WDR41]
protein stability index: 3.75
//
ENTRY SEQUENCE: FIEERRQGLEQFINKIAGHPLAQN [SNX12]
protein stability index: 2.94
//
ENTRY SEQUENCE: PTFKSFEERVETTVTSLKTKVGGT [TPD52L1]
protein stability index: 4.65
//
ENTRY SEQUENCE: LIALANRFCLPHLVALAEQHAVQE [RHOBTB1]
protein stability index: 3.33
//
ENTRY SEQUENCE: KIFVENLRRQKSLRLEWETQQELR [IQUB]
protein stability index: 2.93
//
ENTRY SEQUENCE: DSKSGGSGSESDHTTRSSLRGPRE [DVL3]
protein stability index: 5.19
//
ENTRY SEQUENCE: MDALQLANSAFAVDLFKQLCEKEP [SERPINB5]
protein stability index: 3.53
//
ENTRY SEQUENCE: LGYAVSTFAMVKGYFFPTSARDCK [DHCR7]
protein stability index: 2.09
//
ENTRY SEQUENCE: RHKSGVHQPPQAGAGDVVLLQREL [LYSMD4]
protein stability index: 4.16
